experiment: Quantitative High-Throughput drug screen in 47 multiple myeloma cell lines against the NCATS MIPE library collection: JJN3_DSMZ cell viability assay (AID 1918966; also: potency is read from the fitted curve at half-maximal effect; nearly all actives have a fitted effect of over 50% in size); details: JJN3 myeloma cells viability, CellTiter-Glo ATP, 48 h; series mostly up to 45.8 µM
Inconclusive results are not listed. The source made the active and inactive calls. Calls follow the shape of the dose curve; as a rule, active = well fitted cell-killing curve with a large enough effect; inconclusive = small, poorly fitted or top-dose-only effect, or effect the other way; inactive = no such curve, though single readings can be large or run the other way.
metric: Potency

// worked examples, Potency included
- smiles input: "Cn1cc(-c2[nH]c3cc(NC(=O)[C@H](N)C4CCCCC4)cc4c3c2C=NNC4=O)cn1"
  result: "0.662 µM (active)"
- smiles input: "Cc1cc(Nc2cc(NC(=O)c3c(Cl)cccc3Cl)ccn2)nc(N)n1"
  result: "0.743 µM (active)"
- smiles input: "CCc1c2c(nc3ccc(O)cc13)-c1cc3c(c(=O)n1C2)COC(=O)[C@]3(O)CC"
  result: "0.332 µM (active)"

Shifting focus to the molecule that follows.
// Input: "Nc1nccc(Oc2ccc(NC(=O)c3c[nH]cc(-c4ccc(F)cc4)c3=O)cc2F)c1Cl" . Output its Potency only.
20.9 µM (active)
